Exercise: for every item that follows, state its recorded Potency.
Assay: qHTS Screen of the MIPE 4.0 Collection Against Ewings Sarcoma (EW8) (AID 1259255); further: potency means the concentration at half of the fitted maximal effect; nearly all actives have a fitted effect of over 35% in size
Details: EW8 Ewing sarcoma viability, CellTiter-Glo, 48 h; series mostly up to 45.8 µM
Results filed as inconclusive are left out. Calls of active or inactive are those of the source. The call rests on the fitted dose curve; in most records, active means well fitted inhibition curve with a large enough effect; inconclusive means small, poorly fitted or top-dose-only effect; inactive means no such curve, though single readings can be large or run the other way.

State the recorded Potency for this entry: `C[C@@H]1CN(CC(=O)Nc2ccc3c(c2)Cc2cccc(-c4cc(=O)cc(N5CCOCC5)o4)c2S3)C[C@H](C)O1`
23.5 µM (active)

Query: Potency; subject: `CC(C)(C)OC(=O)Nc1ccc(-c2cc(C(=O)NCCCCCCC(=O)NO)no2)cc1`
1.32 µM (active)

Find the recorded Potency belonging to `CCC1=C[C@@H]2CN(C1)Cc1c([nH]c3ccccc13)[C@@](C(=O)OC)(c1cc3c(cc1OC)N(C)[C@@H]1[C@@](O)(C(=O)OC)[C@H](OC(C)=O)[C@]4(CC)C=CCN5CC[C@]31[C@@H]54)C2` and report it.
0.0066 µM (active)

Which Potency is listed for `CC(=O)c1c(C)c2cnc(Nc3ccc(N4CCNCC4)cn3)nc2n(C2CCCC2)c1=O` ?
20.9 µM (active)
